For each entry below, report its ΔTm at 20 µM value.
- test-target: EphA3 (Homo sapiens)
- Construct: A clone of EphA3 kinase domain (residues: 606-947); made in house; host or cells: Escherichia coli BL21 (DE3)
- Sequence (P29320 606-947): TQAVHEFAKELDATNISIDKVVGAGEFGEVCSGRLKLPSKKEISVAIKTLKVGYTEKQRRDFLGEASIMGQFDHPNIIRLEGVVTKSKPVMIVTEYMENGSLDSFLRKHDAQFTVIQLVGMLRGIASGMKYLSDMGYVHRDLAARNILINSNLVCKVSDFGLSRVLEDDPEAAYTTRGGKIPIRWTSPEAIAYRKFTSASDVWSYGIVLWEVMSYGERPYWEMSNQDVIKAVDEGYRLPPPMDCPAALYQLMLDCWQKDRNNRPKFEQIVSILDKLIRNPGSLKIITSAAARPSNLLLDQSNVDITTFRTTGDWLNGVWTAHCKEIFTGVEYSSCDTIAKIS
- method-summary: Differential Scanning Fluorimetry
- Type: binding
- protocol-conditions: 2 µM EphA3, compound 20µM; read-out: Delta Tm
Write the value in °C as a bare number.

Give recorded ΔTm at 20 µM with EphA3 (Homo sapiens) for the following compound: CC(C)(C)c1cc(NC(=O)Nc2ccc(-n3c(N)c(C(N)=O)c4nc5ccccc5nc43)cc2)n(-c2ccc3ncccc3c2)n1 [Compound 10n]
19.3

Give recorded ΔTm at 20 µM with EphA3 (Homo sapiens) for the following compound: Cc1cn(-c2cc(NC(=O)c3ccc(C)c(-n4c(N)c(C(N)=O)c5nc6ccccc6nc54)c3)cc(C(F)(F)F)c2)cn1 [Compound 10l]
16.2

Give recorded ΔTm at 20 µM with EphA3 (Homo sapiens) for the following compound: Cc1ccc(NC(=O)c2cccc(C(F)(F)F)c2)cc1-n1c(N)c(C(N)=O)c2nc3ccccc3nc21 [Compound 10g]
12.3

Give recorded ΔTm at 20 µM with EphA3 (Homo sapiens) for the following compound: Cc1ccc(C(=O)Nc2cccc(C(F)(F)F)c2)cc1-n1c(N)c(C(N)=O)c2nc3ccccc3nc21 [Compound 10i]
14.4

Give recorded ΔTm at 20 µM with EphA3 (Homo sapiens) for the following compound: Cc1cn(-c2cc(C(=O)Nc3ccc(C)c(-n4c(N)c(C(N)=O)c5nc6ccccc6nc54)c3)cc(C(F)(F)F)c2)cn1 [Compound 10m]
15.8

Give recorded ΔTm at 20 µM with EphA3 (Homo sapiens) for the following compound: NC(=O)c1c(N)n(-c2cc(NC(=O)c3cccc(C(F)(F)F)c3)ccc2F)c2nc3ccccc3nc12 [Compound 10h]
10.9

Give recorded ΔTm at 20 µM with EphA3 (Homo sapiens) for the following compound: NC(=O)c1c(N)n(-c2cccc(C(=O)Nc3cccc(C(F)(F)F)c3)c2)c2nc3ccccc3nc12 [Compound 10c]
9.1

Give recorded ΔTm at 20 µM with EphA3 (Homo sapiens) for the following compound: NC(=O)c1c(N)n(-c2ccc(NC(=S)Nc3cccc(C(F)(F)F)c3)cc2)c2nc3ccccc3nc12 [Compound 10k]
9.9

Give recorded ΔTm at 20 µM with EphA3 (Homo sapiens) for the following compound: NC(=O)c1c(N)n(-c2cccc(NC(=O)c3cccc(C(F)(F)F)c3)c2)c2nc3ccccc3nc12 [Compound 10d]
7.6

Give recorded ΔTm at 20 µM with EphA3 (Homo sapiens) for the following compound: Cc1ccc(-n2nc(C(C)(C)C)cc2NC(=O)Nc2ccc(-n3c(N)c(C(N)=O)c4nc5ccccc5nc43)cc2)cc1 [Compound 10o]
17.3

Give recorded ΔTm at 20 µM with EphA3 (Homo sapiens) for the following compound: NC(=O)c1c(N)n(-c2cc(C(=O)Nc3cccc(C(F)(F)F)c3)ccc2F)c2nc3ccccc3nc12 [Compound 10j]
13

###

- method-summary: In vivo pharmacokinetics in blood plasma
- Parameters: species or system male CD-1 (ICD) mice
- protocol-conditions: male, CD-1 (ICD), mouse; PO, 5 mg/kg, mice plasma
value-type: Cmax (ng/mL)
Write the value in ng/mL as a bare number.

Would you mind telling me what Cmax value was observed for NC(=O)c1c(N)n(-c2cccc(NC(=O)c3cccc(C(F)(F)F)c3)c2)c2nc3ccccc3nc12 [Compound 10d] ?
45

Would you mind telling me what Cmax value was observed for NC(=O)c1c(N)n(-c2cccc(C(=O)Nc3cccc(C(F)(F)F)c3)c2)c2nc3ccccc3nc12 [Compound 10c] ?
164

###

- Test system: K-562 leukemia cells
I'd appreciate it if you marked entries TRUE when GI50 is lower than 30 nM and FALSE when it is not.

Strictly below 30 nM in GI50? Cc1ccc(-n2nc(C(C)(C)C)cc2NC(=O)Nc2ccc(-n3c(N)c(C(N)=O)c4nc5ccccc5nc43)cc2)cc1 [Compound 10o]
TRUE

Strictly below 30 nM in GI50? NC(=O)c1c(N)n(-c2cc(C(=O)Nc3cccc(C(F)(F)F)c3)ccc2F)c2nc3ccccc3nc12 [Compound 10j]
FALSE

Strictly below 30 nM in GI50? CC(C)(C)c1cc(NC(=O)Nc2ccc(-n3c(N)c(C(N)=O)c4nc5ccccc5nc43)cc2)n(-c2ccc3ncccc3c2)n1 [Compound 10n]
TRUE

Strictly below 30 nM in GI50? NC(=O)c1c(N)n(-c2cc(NC(=O)c3cccc(C(F)(F)F)c3)ccc2F)c2nc3ccccc3nc12 [Compound 10h]
FALSE

Strictly below 30 nM in GI50? Cc1ccc(C(=O)Nc2cccc(C(F)(F)F)c2)cc1-n1c(N)c(C(N)=O)c2nc3ccccc3nc21 [Compound 10i]
FALSE

Strictly below 30 nM in GI50? NC(=O)c1c(N)n(-c2ccc(NC(=S)Nc3cccc(C(F)(F)F)c3)cc2)c2nc3ccccc3nc12 [Compound 10k]
FALSE

Strictly below 30 nM in GI50? Cc1cn(-c2cc(NC(=O)c3ccc(C)c(-n4c(N)c(C(N)=O)c5nc6ccccc6nc54)c3)cc(C(F)(F)F)c2)cn1 [Compound 10l]
TRUE

Strictly below 30 nM in GI50? NC(=O)c1c(N)n(-c2ccc(NC(=O)Nc3cccc(C(F)(F)F)c3)cc2)c2nc3ccccc3nc12 [Compound 10p]
FALSE

Strictly below 30 nM in GI50? Cc1ccc(NC(=O)c2cccc(C(F)(F)F)c2)cc1-n1c(N)c(C(N)=O)c2nc3ccccc3nc21 [Compound 10g]
FALSE

###

- test-target: full-length human EphB4 (Homo sapiens, UniProt P54760)
- Construct: stably transfected to overexpress full-length human EphB4
- Sequence (P54760 16-987): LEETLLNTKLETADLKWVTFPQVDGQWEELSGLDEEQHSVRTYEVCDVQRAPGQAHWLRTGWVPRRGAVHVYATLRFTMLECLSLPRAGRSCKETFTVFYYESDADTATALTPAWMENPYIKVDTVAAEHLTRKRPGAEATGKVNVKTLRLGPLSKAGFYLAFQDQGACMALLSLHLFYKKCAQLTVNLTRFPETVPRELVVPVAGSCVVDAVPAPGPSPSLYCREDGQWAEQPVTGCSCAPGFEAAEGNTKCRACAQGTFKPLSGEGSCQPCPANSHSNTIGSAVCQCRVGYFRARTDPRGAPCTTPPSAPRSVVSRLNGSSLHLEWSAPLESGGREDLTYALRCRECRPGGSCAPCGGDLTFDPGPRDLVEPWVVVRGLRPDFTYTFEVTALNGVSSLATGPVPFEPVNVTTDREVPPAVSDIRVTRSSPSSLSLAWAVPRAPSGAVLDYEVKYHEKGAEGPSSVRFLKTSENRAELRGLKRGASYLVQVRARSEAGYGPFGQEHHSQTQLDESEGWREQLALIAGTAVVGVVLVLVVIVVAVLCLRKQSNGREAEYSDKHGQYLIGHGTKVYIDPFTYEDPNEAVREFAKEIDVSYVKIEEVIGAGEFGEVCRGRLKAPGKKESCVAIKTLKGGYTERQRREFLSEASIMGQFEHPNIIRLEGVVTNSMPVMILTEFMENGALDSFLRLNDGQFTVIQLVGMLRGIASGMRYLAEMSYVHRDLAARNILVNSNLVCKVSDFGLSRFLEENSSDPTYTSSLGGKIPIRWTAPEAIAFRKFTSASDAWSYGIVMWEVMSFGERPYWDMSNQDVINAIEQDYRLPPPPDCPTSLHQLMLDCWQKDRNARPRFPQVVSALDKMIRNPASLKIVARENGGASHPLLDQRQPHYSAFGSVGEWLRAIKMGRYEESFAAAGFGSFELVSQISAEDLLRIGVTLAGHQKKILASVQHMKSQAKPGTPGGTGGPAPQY
- method-summary: Cellular phosphorylation assay (sandwich ELISA, ProQinase)
- protocol-conditions: mouse embryonic fibroblast cells overexpressing EphB4, stimulated with murine ephrinB2-Fc, read-out: cell IC50
value-type: pIC50
Give only the number. pIC50 is defined as minus log10 of concentration in molar units.

Would you mind telling me what pIC50 value was observed for NC(=O)c1c(N)n(-c2cccc(NC(=O)c3cccc(C(F)(F)F)c3)c2)c2nc3ccccc3nc12 [Compound 10d] ?
7.70

Would you mind telling me what pIC50 value was observed for CC(C)(C)c1cc(NC(=O)Nc2ccc(-n3c(N)c(C(N)=O)c4nc5ccccc5nc43)cc2)n(-c2ccc3ncccc3c2)n1 [Compound 10n] ?
5.96

Would you mind telling me what pIC50 value was observed for NC(=O)c1c(N)n(-c2cccc(C(=O)Nc3cccc(C(F)(F)F)c3)c2)c2nc3ccccc3nc12 [Compound 10c] ?
7.80

Would you mind telling me what pIC50 value was observed for Cc1ccc(-n2nc(C(C)(C)C)cc2NC(=O)Nc2ccc(-n3c(N)c(C(N)=O)c4nc5ccccc5nc43)cc2)cc1 [Compound 10o] ?
6.43
